- measured.on: Tyk2 kinase activity on STAT4 in NK92 cells (Homo sapiens)
- Sequence (P29597 whole entry): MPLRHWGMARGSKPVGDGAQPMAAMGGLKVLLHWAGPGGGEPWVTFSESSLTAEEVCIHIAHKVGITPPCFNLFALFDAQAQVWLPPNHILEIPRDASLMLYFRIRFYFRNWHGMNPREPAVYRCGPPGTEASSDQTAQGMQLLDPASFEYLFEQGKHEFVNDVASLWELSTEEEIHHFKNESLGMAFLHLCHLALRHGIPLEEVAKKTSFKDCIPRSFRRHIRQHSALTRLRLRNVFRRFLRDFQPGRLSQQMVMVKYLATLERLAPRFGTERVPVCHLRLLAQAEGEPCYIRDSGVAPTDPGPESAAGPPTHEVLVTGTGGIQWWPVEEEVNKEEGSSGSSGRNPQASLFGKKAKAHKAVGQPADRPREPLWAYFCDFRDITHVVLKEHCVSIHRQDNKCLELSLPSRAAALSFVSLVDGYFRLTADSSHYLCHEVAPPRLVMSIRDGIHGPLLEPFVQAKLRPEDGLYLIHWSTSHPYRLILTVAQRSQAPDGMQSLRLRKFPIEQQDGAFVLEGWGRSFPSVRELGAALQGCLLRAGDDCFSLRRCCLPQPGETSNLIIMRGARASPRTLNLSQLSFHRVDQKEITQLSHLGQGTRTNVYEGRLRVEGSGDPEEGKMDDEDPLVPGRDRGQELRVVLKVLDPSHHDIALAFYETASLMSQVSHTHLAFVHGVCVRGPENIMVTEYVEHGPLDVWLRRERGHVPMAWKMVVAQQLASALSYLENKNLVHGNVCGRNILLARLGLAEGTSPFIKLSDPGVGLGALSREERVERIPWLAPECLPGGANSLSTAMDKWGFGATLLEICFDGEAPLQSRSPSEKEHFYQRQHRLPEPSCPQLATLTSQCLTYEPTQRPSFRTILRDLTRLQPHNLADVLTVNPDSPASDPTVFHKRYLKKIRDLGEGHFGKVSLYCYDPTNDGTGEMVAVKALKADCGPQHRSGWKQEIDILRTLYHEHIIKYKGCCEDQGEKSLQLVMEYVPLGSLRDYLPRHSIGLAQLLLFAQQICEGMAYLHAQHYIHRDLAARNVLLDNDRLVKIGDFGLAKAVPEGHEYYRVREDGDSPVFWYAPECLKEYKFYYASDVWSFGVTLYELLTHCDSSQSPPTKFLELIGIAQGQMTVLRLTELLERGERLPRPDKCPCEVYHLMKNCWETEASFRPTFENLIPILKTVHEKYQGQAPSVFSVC
- assay.protocol: pSTAT4 cell assay (MSD; NK92 cells, 30 ng/mL IL2 stimulation)
- condition.info: 30 ng/mL IL2, 15 minutes
pIC50: −log10 of the molar value. Where a name gives a salt, the structure may show the parent alone.
A collection of compounds and their measured pIC50

>  <compound>
C[C@@H]1CN(c2nc(-c3cnn(C(F)F)c3)cn3nccc23)C(=O)[C@]1(C#N)C1CC1

>  <pIC50>
7.30 to 7.70

$$$$
>  <compound>
C[C@@H]1CN(c2ccnn3cc(-c4cnn(C5CCCCC5)c4)cc23)C(=O)[C@]1(C#N)C1CC1

>  <pIC50>
< 7.00

$$$$
>  <compound>
C[C@@H]1CN(c2ccnn3cc(-c4cccc(C(F)F)n4)cc23)C(=O)[C@]1(C#N)C1CC1 [Example 135, trifluoroacetate]

>  <pIC50>
< 7.00

$$$$
>  <compound>
C[C@@H]1CN(c2ccnn3cc(-c4cnn([C@@H]5CC5(F)F)c4)cc23)C(=O)[C@]1(C#N)C1CC1 (single isomer, unassigned)

>  <pIC50>
7.00 to 7.30

$$$$
>  <compound>
COc1cc(-c2cc3c(N4C[C@@H](C)[C@@](C#N)(C5CC5)C4=O)ccnn3c2)ccn1

>  <pIC50>
7.00 to 7.30

$$$$
>  <compound>
C[C@@H]1CN(c2ccnn3cc(-c4cn(C)cn4)cc23)C(=O)[C@]1(C#N)C1CC1 [Example 111, trifluoroacetate]

>  <pIC50>
< 7.00

$$$$
>  <compound>
C[C@@H]1CN(c2nc(-c3cnn(C(F)F)c3)cn3ncc(F)c23)C(=O)[C@]1(C#N)C1CC1

>  <pIC50>
7.00 to 7.30

$$$$
>  <compound>
C[C@@H]1CN(c2nc(-c3ccc4cnn(C)c4c3)cn3nccc23)C(=O)[C@]1(C#N)C1CC1 [Example 259, trifluoroacetate]

>  <pIC50>
7.70 to 8.30

$$$$
>  <compound>
CC(=O)Nc1cc(-c2cn3nccc3c(N3C[C@@H](C)[C@@](C#N)(C4CC4)C3=O)n2)ccn1

>  <pIC50>
7.00 to 7.30

$$$$
>  <compound>
Cc1cc(-n2nc(N3C[C@@H](C)[C@@](C#N)(C4CC4)C3=O)c3ccncc32)ccn1

>  <pIC50>
< 7.00

$$$$
>  <compound>
[2H]C([2H])([2H])n1cc(-c2cn3nccc3c(N3C[C@@H](C)[C@@](C#N)(C4CC4)C3=O)n2)cn1

>  <pIC50>
7.30 to 7.70

$$$$
>  <compound>
C[C@@H]1CN(c2nn(-c3cnn(C4COC4)c3)c3cnccc23)C(=O)[C@]1(C#N)C1CC1

>  <pIC50>
< 7.00

$$$$
>  <compound>
C[C@@H]1CN(c2ccnn3cc(-c4cnn(C5CC(F)(F)C5)c4)cc23)C(=O)[C@]1(C#N)C1CC1

>  <pIC50>
7.00 to 7.30

$$$$
>  <compound>
C[C@@H]1CN(c2ccnn3cc(-c4ccc(N(C)C)nc4)cc23)C(=O)[C@]1(C#N)C1CC1

>  <pIC50>
7.00 to 7.30

$$$$
>  <compound>
C[C@@H]1CN(c2nc(-c3ccnc(C(F)(F)F)c3)cn3nccc23)C(=O)[C@]1(C#N)C1CC1 [Example 234, trifluoroacetate]

>  <pIC50>
< 7.00

$$$$
>  <compound>
C[C@@H]1CN(c2ccnn3cc(-c4cn(C5COC5)nc4F)cc23)C(=O)[C@]1(C#N)C1CC1

>  <pIC50>
7.00 to 7.30

$$$$
>  <compound>
C[C@@H]1CN(c2ccnn3cc(-c4cccc5c4cnn5C)cc23)C(=O)[C@]1(C#N)C1CC1

>  <pIC50>
< 7.00

$$$$
>  <compound>
C[C@@H]1CN(c2nc(-c3ccnc(C#N)c3)cn3nccc23)C(=O)[C@]1(C#N)C1CC1

>  <pIC50>
< 7.00

$$$$
>  <compound>
C[C@@H]1CN(c2ccnn3cc(-c4cnc(C(F)F)s4)cc23)C(=O)[C@]1(C#N)C1CC1 [Example 101, trifluoroacetate]

>  <pIC50>
< 7.00

$$$$
>  <compound>
COc1cc(-c2cc3c(N4CC[C@](C#N)(C5CC5)C4=O)ccnc3[nH]2)ccn1

>  <pIC50>
< 7.00

$$$$
>  <compound>
C[C@@H]1CN(c2ccnn3cc(-c4cn(C)nn4)cc23)C(=O)[C@]1(C#N)C1CC1 [Example 112, trifluoroacetate]

>  <pIC50>
< 7.00

$$$$
>  <compound>
C[C@@H]1CN(c2ccnn3cc(-c4cnn(CC#N)c4)cc23)C(=O)[C@]1(C#N)C1CC1

>  <pIC50>
7.00 to 7.30

$$$$
>  <compound>
C[C@@H]1CN(c2ccnn3cc(-c4ccc(=O)n(C)c4)cc23)C(=O)[C@]1(C#N)C1CC1

>  <pIC50>
7.00 to 7.30

$$$$
>  <compound>
C[C@@H]1CN(c2nc(-c3cnn(C4COC4)c3)cn3nccc23)C(=O)[C@]1(C#N)C1CC1

>  <pIC50>
7.30 to 7.70

$$$$
>  <compound>
Cc1nc(-c2cn3nccc3c(N3C[C@@H](C)[C@@](C#N)(C4CC4)C3=O)n2)cs1

>  <pIC50>
< 7.00

$$$$
>  <compound>
C[C@@H]1CN(c2ccnn3cc(-c4ccc5ncnn5c4)cc23)C(=O)[C@]1(C#N)C1CC1

>  <pIC50>
< 7.00

$$$$
>  <compound>
C[C@@H]1CN(c2nc(-c3cnn([C@H]4C[C@@](C)(O)C4)c3)cn3ncc(F)c23)C(=O)[C@]1(C#N)C1CC1

>  <pIC50>
7.00 to 7.30

$$$$
>  <compound>
COc1ccc(-c2cn3nccc3c(N3C[C@@H](C)[C@@](C#N)(C4CC4)C3=O)n2)nc1

>  <pIC50>
< 7.00

$$$$
